Please go through the items and note down their growth inhibition.
# assay_explanation: NCI Yeast Anticancer Drug Screen. Data for the bub3 strain (AID 167)
# measurement_conditions: S. cerevisiae bub3 mutant strain, at 50.0 µM, stronger effect = higher value
The panel holds about 79,000 compounds, 15% with a hit somewhere; the sample as a whole holds those more often.
Numbers only, in %.

Example entries begin here.
1) Nc1cccc(N2N=C(C(=O)O)CC2=O)c1 | -2.7
2) Cc1cccc(C(C)(O)c2cnc(C)n2Cc2ccccc2)c1 (stereo not given) | 9.35
3) CCCOc1cc2c(cc1C(C)c1ccc(OCC)c(C)c1)OCO2 (stereo not given) | -3.9
4) COC1C(OC(N)=O)C(O)C(Oc2ccc3c(O)c(NC(=O)c4ccc(O)c(CC=C(C)C)c4)c(=O)oc3c2C)OC1(C)C (stereo not given) | 9.1
5) N#Cc1ccc(/C=C/C(=O)c2ccccc2)cc1 | 13.9

Give measured growth inhibition for every item shown.
1. C=C1CN=C(Nc2ccc(Cl)cc2)S1
2. Cc1cccc(C(C#N)C(=O)CCCC(=O)Nc2ccccc2[N+](=O)[O-])c1 (stereo not given)
3. CC1(C)Cc2ccccc2C(C)(Cl)C(=O)N1 (stereo not given)
4. O=C1/C(=C/c2ccc3c(c2)OCO3)CC/C1=C\c1ccc2c(c1)OCO2
5. CCN(CC)CCOC(=O)c1ccc(N=C/C=C/C(C#N)=C/NOC)cc1
6. Fc1ccc2cc3cccc[n+]3cc2c1
7. CC(=O)OCc1ccc([N+](=O)[O-])cc1
8. Cc1cc2ncn(CO)c2cc1C

Response:
[11.5, 6.9, -26.9, -13.7, 9.9, 10.1, -6.05, 20]

Source of measurements: PubChem BioAssay (NCI)
